Ref: PubChem BioAssay AID1159580

experiment: chemical genetic growth profiling, strain panel (AID 1159580);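 also: tested at 20 µM; growth read once vehicle control cultures reached saturation at 30 °C; 1 = growth at the plate median or of vehicle wells; lower values mean less growth of the strain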; conditions: S. cerevisiae deletion strains, growth OD, locus YOR106W, strain vam3
The whole screen tested about 5,500 compounds, of which about 2,000 (36%) were called active. About 18% were inconclusive and are not listed. Rule as the data show it: active = normalized growth mostly below about 0.91 (no sharp cut-off); inconclusive = no clear call, values can overlap the other calls; inactive = mostly above about 0.92. This is one part of the list.
Classes used: active, inactive

>  <MOLECULE>
O=c1oc2ccccc2cc1O

>  <LABEL>
inactive

$$$$
>  <MOLECULE>
C[C@H]1C[C@@H](O)[C@]2(O)[C@@]13CC(=O)OC[C@@]2(C)[C@](C)(O)C(=O)C3

>  <LABEL>
inactive

$$$$
>  <MOLECULE>
Cc1cc(CC(=O)O)n(C)c1C(=O)c1ccc(Cl)cc1

>  <LABEL>
inactive

$$$$
>  <MOLECULE>
O=C(O)CCC1NCC2CC1CN1CCCCC21 (stereo unspecified)

>  <LABEL>
inactive

$$$$
>  <MOLECULE>
Cc1cc(/C=C/c2ccc3cc(N(C)C)ccc3[n+]2C)c(C)n1-c1ccccc1

>  <LABEL>
active

$$$$
>  <MOLECULE>
Cc1ccc(C(=O)c2ccc(CC(=O)O)n2C)cc1

>  <LABEL>
inactive

$$$$

----------
Each entry below carries its recorded normalized growth.
experiment: chemical genetic growth profiling, strain panel (AID 1159580);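 also: tested at 20 µM; growth read once vehicle control cultures reached saturation at 30 °C; 1 = growth at the plate median or of vehicle wells; lower values mean less growth of the strain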; conditions: S. cerevisiae deletion strains, growth OD, locus YBR021W, strain FUR4, stronger effect = lower value
Screen size: about 5,500 compounds; about 2,000 (36%) were called active. Another 18% or so got no clear call; they are omitted. The list shows a part of the results.
MEASUREMENT NAME: normalized growth

>  <MOLECULE>
Cc1cccc(C)c1NC(=O)C1CCCCN1C (stereo not drawn)

>  <MEASUREMENT NAME>
normalized growth

>  <NUMBER>
1

$$$$
>  <MOLECULE>
COc1ccc(-c2cc(=O)c3c(OC)cc(OC)cc3o2)cc1

>  <MEASUREMENT NAME>
normalized growth

>  <NUMBER>
0.903

$$$$
>  <MOLECULE>
CC(C)=CC1C(C(=O)OCc2cccc(Oc3ccccc3)c2)C1(C)C (stereo not drawn)

>  <MEASUREMENT NAME>
normalized growth

>  <NUMBER>
0.998

$$$$
>  <MOLECULE>
CCCNC(=O)NS(=O)(=O)c1ccc(Cl)cc1

>  <MEASUREMENT NAME>
normalized growth

>  <NUMBER>
1.03

$$$$
>  <MOLECULE>
c1ccc2c(CC3=NCCN3)cccc2c1

>  <MEASUREMENT NAME>
normalized growth

>  <NUMBER>
0.999

$$$$
>  <MOLECULE>
C[C@]12CCC3C(CC[C@H]4C[C@@H](O)CC[C@]34C)C1CC[C@@H]2O (stereo partly drawn)

>  <MEASUREMENT NAME>
normalized growth

>  <NUMBER>
1.01

$$$$
>  <MOLECULE>
CN[C@@H]1C(OC2[C@H](O[C@H]3[C@H](O)[C@@H](O)[C@H](N=C(N)N)[C@@H](O)[C@@H]3N=C(N)N)OC(C)[C@]2(O)CO)OC(CO)C(O)C1O (stereo partly drawn)

>  <MEASUREMENT NAME>
normalized growth

>  <NUMBER>
0.988

$$$$
>  <MOLECULE>
CC(=O)OCC(=O)[C@@]1(O)CCC2C3CCC4=CC(=O)C=CC4(C)C3[C@@H](O)C[C@@]21C (stereo partly drawn)

>  <MEASUREMENT NAME>
normalized growth

>  <NUMBER>
1.02

$$$$
>  <MOLECULE>
CC(=O)C1CC[C@H]2C3CC[C@H]4C[C@H](O)CC[C@]4(C)C3CC[C@]12C (stereo partly drawn)

>  <MEASUREMENT NAME>
normalized growth

>  <NUMBER>
0.977

$$$$
>  <MOLECULE>
CC(=O)O[C@@H]1CC2C(C)(C)C(=O)C3OC3[C@]2(C)C2CC[C@@]3(C)[C@H](c4ccoc4)OC(=O)C4OC43[C@@]21C (stereo partly drawn)

>  <MEASUREMENT NAME>
normalized growth

>  <NUMBER>
0.964

$$$$
>  <MOLECULE>
O=C(O)CCCCCCCC(=O)O

>  <MEASUREMENT NAME>
normalized growth

>  <NUMBER>
0.999

$$$$
>  <MOLECULE>
O=C(O)CCC1NCC2CC1CN1CCCCC21 (stereo not drawn)

>  <MEASUREMENT NAME>
normalized growth

>  <NUMBER>
1.01

$$$$
>  <MOLECULE>
CC(C)/C(O)=C1/C(=O)O[C@@H](c2ccoc2)[C@]2(C)C(O)[C@@H](O)[C@@]34OC5(C)OC67CC(C)(C(O)[C@]6(O)[C@@H](O)[C@]3(O5)C12)[C@H](CC(=O)O)[C@]74C (stereo partly drawn)

>  <MEASUREMENT NAME>
normalized growth

>  <NUMBER>
0.991

$$$$
>  <MOLECULE>
Clc1ccc(COC(Cn2ccnc2)c2ccc(Cl)cc2Cl)c(Cl)c1 (stereo not drawn)

>  <MEASUREMENT NAME>
normalized growth

>  <NUMBER>
0.0874

$$$$
>  <MOLECULE>
O=C1CCCCC/C=C/CCCCCCCCO1

>  <MEASUREMENT NAME>
normalized growth

>  <NUMBER>
1.01

$$$$
>  <MOLECULE>
NC(N)=NCCCCN=C(N)N

>  <MEASUREMENT NAME>
normalized growth

>  <NUMBER>
1.04

$$$$
>  <MOLECULE>
C[C@@H]1CC[C@H]2C(C)(C)C3CC12CC[C@@]3(C)O (stereo partly drawn)

>  <MEASUREMENT NAME>
normalized growth

>  <NUMBER>
0.935

$$$$
>  <MOLECULE>
COc1ccc2oc(-c3ccccc3)c(OC)c(=O)c2c1

>  <MEASUREMENT NAME>
normalized growth

>  <NUMBER>
0.925

$$$$
>  <MOLECULE>
C=C[C@@]1(C)CC(=O)[C@@]2(O)[C@](C)(O1)[C@@H](OC(C)=O)[C@@H](O)C1C(C)(C)CC[C@H](O)[C@@]12C (stereo partly drawn)

>  <MEASUREMENT NAME>
normalized growth

>  <NUMBER>
1.01

$$$$
>  <MOLECULE>
C1N2CN3CN1CN(C2)C3

>  <MEASUREMENT NAME>
normalized growth

>  <NUMBER>
1.06

$$$$
>  <MOLECULE>
C[C@]12C=CC(=O)C=C1CCC1C2[C@@H](O)C[C@@]2(C)C1CC[C@]2(O)C(=O)CO (stereo partly drawn)

>  <MEASUREMENT NAME>
normalized growth

>  <NUMBER>
0.979

$$$$
>  <MOLECULE>
Oc1c(Cl)cc(Cl)c(Cl)c1Cc1c(O)c(Cl)cc(Cl)c1Cl

>  <MEASUREMENT NAME>
normalized growth

>  <NUMBER>
0.0863

$$$$
>  <MOLECULE>
CC(=O)OC1CC(O)C(C)(C)C2CC(=O)C3(C)C(CCC4(C)C(c5ccoc5)OC(=O)C5OC543)C12C (stereo not drawn)

>  <MEASUREMENT NAME>
normalized growth

>  <NUMBER>
0.947

$$$$
>  <MOLECULE>
CC(=O)C1CCC2C3CCC4C[C@H](O)CCC4(C)C3C[C@H](O)C12C (stereo partly drawn)

>  <MEASUREMENT NAME>
normalized growth

>  <NUMBER>
1.02

$$$$
>  <MOLECULE>
Clc1ccc(CSC(Cn2ccnc2)c2ccc(Cl)cc2Cl)cc1 (stereo not drawn)

>  <MEASUREMENT NAME>
normalized growth

>  <NUMBER>
0.0857

$$$$
>  <MOLECULE>
COc1cc(C)c2c(=O)cc(-c3ccccc3)oc2c1

>  <MEASUREMENT NAME>
normalized growth

>  <NUMBER>
0.921

$$$$
>  <MOLECULE>
NCCCC(=O)O

>  <MEASUREMENT NAME>
normalized growth

>  <NUMBER>
1.01

$$$$
>  <MOLECULE>
CC(C)c1nc(N(C)S(C)(=O)=O)nc(-c2ccc(F)cc2)c1/C=C/[C@@H](O)C[C@@H](O)CC(=O)O

>  <MEASUREMENT NAME>
normalized growth

>  <NUMBER>
0.96

$$$$
